Values were extracted from the supplement of paper PMC10567573.

Readings of protein stability index for the listed variants
B1: C2orf65 (parent)
chain: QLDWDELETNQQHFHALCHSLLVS

# Variants of: B1
# assay_procedure: protein stability index of a GFP-peptide fusion (GPS, HEK-293T) (PSI 1-6); higher = more stable;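 further: lentivirally expressed fusions sorted by FACS into six bins by GFP to DsRed ratio, PSI derived from sequencing read proportions per bin multiplied by bin number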
# recorded_conditions: c terminus: a fixed tail appended
measured_quantity: protein stability index

> print(dat)
   variant  test.value
1     N10K           2
2     N10Y        1.99
3      L2E        2.97
4      E6S        1.66
5      L7S         2.8
6      L2A        2.68
7     S20L        2.19
8     Q11H        2.07
